Cited source for all entries: patent US20090035322A1

The entries below are paired with their reported % Cytotoxicity (CDC, Daudi), 6 hour.
Target: T1, human CD20 (human, UniProt P11836 1-297)
T1 sequence: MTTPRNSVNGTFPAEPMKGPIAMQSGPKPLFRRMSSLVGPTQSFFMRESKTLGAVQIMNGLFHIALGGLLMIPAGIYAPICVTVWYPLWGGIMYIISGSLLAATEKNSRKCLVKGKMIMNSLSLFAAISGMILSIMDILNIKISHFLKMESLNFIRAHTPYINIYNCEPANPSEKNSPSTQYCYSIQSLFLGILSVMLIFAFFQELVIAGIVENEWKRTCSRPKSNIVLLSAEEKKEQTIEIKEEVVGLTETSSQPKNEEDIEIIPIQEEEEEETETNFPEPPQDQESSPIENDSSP
Assay: cell-based or functional assay

{"columns": ["binder", "% Cytotoxicity (CDC, Daudi), 6 hour"],
 "data": [
  ["2B7-7 (antibody, V domains shown, Fully human IgG, constant region not specified; also called 2B7-7N) VH: EVQLVESGGGLVQPGRSLRLSCAASGFTFRDYTMHWVRQGPGKGLEWVSGISWNSDYIGYADSVKGRFTISRDNAKNSLYLQMNSLRVEDTALYYCAKLSGTYRDYFYGVDVWGQGTTVTVSS VL: EIVLTQSPATLSLSPGERAALSCRASQSVSNYLAWYQQKPGQAPRLLIYDASNRATGIPARFSGSGSGTDFTLTISSLEPEDFAVYYCQQRSNWPLTFGGGTKVEIR", "98.3%"],
  ["9D4-7 (antibody, V domains shown, Fully human IgG, constant region not specified; also called 9D4-7N) VH: EVQLVESGGGLVQPGRSLRLSCAASGFTFYDYAMHWVRQAPGKGLEWVSGISWNSDTIGYADSVKGRFTISRDNAKNSLYLQMNSLRAEDTALYYCTKDGSYGHFYSGLDVWGQGTTVTVSS VL: EIVLTQSPATLSLSPGERATLSCRASQSVSSYLAWYQQKPGQAPRLLIYVASNRATGIPARFSGSGSGTDFTLTISSLEPDDFAVYYCQQRYYWPLTFGGGTKVEIK", "96%"]
]}
